- assay-notes: Kinetics of adsorption of organic toxins to ACF-SBX in Standard Synthetic Test Water
- run-conditions: STW, pH 6.9~7.0; >95% removal
parameter: ACF-SBX >95% (estimated time to achieve designated toxin removal) (min)
Field: numeric (min). Do not append units.

Prompt line: Name the recorded ACF-SBX >95% (estimated time to achieve designated toxin removal) for `C[C@]12CC[C@@H]3c4ccc(O)cc4CC[C@H]3[C@@H]1CC[C@@H]2O` .
Response line: 10.0

Prompt line: Name the recorded ACF-SBX >95% (estimated time to achieve designated toxin removal) for `c1ccc2cc3ccccc3cc2c1` .
Response line: 12.5

Prompt line: Name the recorded ACF-SBX >95% (estimated time to achieve designated toxin removal) for CCCCC(CC)COC(=O)c1ccccc1C(=O)OCC(CC)CCCC (stereo not drawn) [DEHP, bis(2-ethylhexyl)phthalate] .
Response line: 20.0

Prompt line: Name the recorded ACF-SBX >95% (estimated time to achieve designated toxin removal) for `Clc1ccc(Cl)cc1` .
Response line: 2.0

Prompt line: Name the recorded ACF-SBX >95% (estimated time to achieve designated toxin removal) for `Clc1ccccc1Cl` .
Response line: 3.0

Prompt line: Name the recorded ACF-SBX >95% (estimated time to achieve designated toxin removal) for `Oc1cc(Cl)ccc1Oc1ccc(Cl)cc1Cl` .
Response line: 46.7

----------
- assay-notes: Kinetics of adsorption of organic toxins to ACF-SBX in Standard Synthetic Test Water
- run-conditions: STW, pH 6.9~7.0; 50% removal
parameter: ACF-SBX 50% (estimated time to achieve designated toxin removal) (min)
Field: numeric (min). Do not append units.

Prompt line: Name the recorded ACF-SBX 50% (estimated time to achieve designated toxin removal) for `Clc1ccccc1` .
Response line: 0.3

Prompt line: Name the recorded ACF-SBX 50% (estimated time to achieve designated toxin removal) for `CCCCCCCCCc1ccc(O)cc1` .
Response line: 5.0

Prompt line: Name the recorded ACF-SBX 50% (estimated time to achieve designated toxin removal) for `CCNc1nc(Cl)nc(NC(C)C)n1` .
Response line: 1.6

Prompt line: Name the recorded ACF-SBX 50% (estimated time to achieve designated toxin removal) for `Brc1c(Br)c(Br)c(Oc2c(Br)c(Br)c(Br)c(Br)c2Br)c(Br)c1Br` .
Response line: 0.5

Prompt line: Name the recorded ACF-SBX 50% (estimated time to achieve designated toxin removal) for `Clc1ccc(Cl)cc1` .
Response line: 1.0

Prompt line: Name the recorded ACF-SBX 50% (estimated time to achieve designated toxin removal) for `Oc1cc(Cl)ccc1Oc1ccc(Cl)cc1Cl` .
Response line: 1.7

Prompt line: Name the recorded ACF-SBX 50% (estimated time to achieve designated toxin removal) for `c1ccc2cc3ccccc3cc2c1` .
Response line: 0.4

Prompt line: Name the recorded ACF-SBX 50% (estimated time to achieve designated toxin removal) for `Cc1ccc(S(=O)(=O)[N-]Cl)cc1.[Na+]` .
Response line: 3.3

----------
Provide the reported logP of each item.
- assay-notes: Log P (logarithm of measured partition coefficient)
Please reply with the value in numeric form only.

Prompt line: Name the recorded logP for `O=c1[nH]c(=O)c2[nH]c(=O)[nH]c2[nH]1` .
Response line: -2.92

Prompt line: Name the recorded logP for CCCCC(CC)COC(=O)c1ccccc1C(=O)OCC(CC)CCCC (stereo not drawn) [DEHP, bis(2-ethylhexyl)phthalate] .
Response line: 7.8

Prompt line: Name the recorded logP for `Oc1cc(Cl)ccc1Oc1ccc(Cl)cc1Cl` .
Response line: 4.53

----------
- assay-notes: physchem
Provide the reported logP of each item.
Please reply with the value in numeric form only.

Prompt line: Name the recorded logP for CCCCCCCCCc1ccc(O)cc1 [4-nonylphenol] .
Response line: 5.76

Prompt line: Name the recorded logP for Clc1ccccc1Cl [o-dichlorobenzene] .
Response line: 3.38

Prompt line: Name the recorded logP for CCNc1nc(Cl)nc(NC(C)C)n1 [atrazine] .
Response line: 2.61

Prompt line: Name the recorded logP for CCOC(=O)c1ccccc1C(=O)OCC [diethyl phthalate] .
Response line: 2.42

Prompt line: Name the recorded logP for Oc1ccc(Cl)cc1Cl [2,4-dichlorophenol] .
Response line: 3.17

Prompt line: Name the recorded logP for Brc1c(Br)c(Br)c(Oc2c(Br)c(Br)c(Br)c(Br)c2Br)c(Br)c1Br [deca-BDE, decabromodiphenyl ether] .
Response line: 9.97

----------
Provide the reported logP of each item.
- assay-notes: physchem
Please reply with the value in numeric form only.

Prompt line: Name the recorded logP for `CCN(CC)N=O` .
Response line: 0.48

Prompt line: Name the recorded logP for `CC(C)(c1ccc(O)cc1)c1ccc(O)cc1` .
Response line: 3.32

Prompt line: Name the recorded logP for `Cc1ccc(O)cc1` .
Response line: 1.97

----------
- assay-notes: Kinetics of adsorption of organic toxins to ACF-SBX in Standard Synthetic Test Water
- run-conditions: STW, pH 6.9~7.0; >95% removal
Label condition met when ACF-SBX >95% (estimated time to achieve designated toxin removal) < 20 min; otherwise condition not met.

Prompt line: Does the reported ACF-SBX >95% (estimated time to achieve designated toxin removal) of the following compound sit strictly below 20 min? CC(C)(c1ccc(O)cc1)c1ccc(O)cc1 [bisphenol A]
Response line: condition not met

Prompt line: Does the reported ACF-SBX >95% (estimated time to achieve designated toxin removal) of the following compound sit strictly below 20 min? O=c1[nH]c(=O)c2[nH]c(=O)[nH]c2[nH]1 [uric acid]
Response line: condition not met

Prompt line: Does the reported ACF-SBX >95% (estimated time to achieve designated toxin removal) of the following compound sit strictly below 20 min? Oc1ccc(Cl)cc1Cl [2,4-dichlorophenol]
Response line: condition not met

Prompt line: Does the reported ACF-SBX >95% (estimated time to achieve designated toxin removal) of the following compound sit strictly below 20 min? CN(C)C(=O)Nc1ccc(Cl)c(Cl)c1 [diuron]
Response line: condition met

Prompt line: Does the reported ACF-SBX >95% (estimated time to achieve designated toxin removal) of the following compound sit strictly below 20 min? CCN(CC)N=O [NDEA, N-nitrosodiethylamine]
Response line: condition not met

Prompt line: Does the reported ACF-SBX >95% (estimated time to achieve designated toxin removal) of the following compound sit strictly below 20 min? Cc1ccc(S(=O)(=O)[N-]Cl)cc1.[Na+] [chloramine-T]
Response line: condition not met

Prompt line: Does the reported ACF-SBX >95% (estimated time to achieve designated toxin removal) of the following compound sit strictly below 20 min? CCOC(=O)c1ccccc1C(=O)OCC [diethyl phthalate]
Response line: condition not met

Prompt line: Does the reported ACF-SBX >95% (estimated time to achieve designated toxin removal) of the following compound sit strictly below 20 min? CCCCCCCCCc1ccc(O)cc1 [4-nonylphenol]
Response line: condition not met

Prompt line: Does the reported ACF-SBX >95% (estimated time to achieve designated toxin removal) of the following compound sit strictly below 20 min? CCNc1nc(Cl)nc(NC(C)C)n1 [atrazine]
Response line: condition met

Prompt line: Does the reported ACF-SBX >95% (estimated time to achieve designated toxin removal) of the following compound sit strictly below 20 min? Clc1ccccc1 [chlorobenzene]
Response line: condition met

----------
Provide the reported ACF-SBX 50% (estimated time to achieve designated toxin removal) of each item.
- assay-notes: Kinetics of adsorption of organic toxins to ACF-SBX in Standard Synthetic Test Water
- run-conditions: STW, pH 6.9~7.0; 50% removal
Field: numeric (min). Do not append units.

Prompt line: Name the recorded ACF-SBX 50% (estimated time to achieve designated toxin removal) for CN(C)C(=O)Nc1ccc(Cl)c(Cl)c1 [diuron] .
Response line: 3.0

Prompt line: Name the recorded ACF-SBX 50% (estimated time to achieve designated toxin removal) for CCN(CC)N=O [NDEA, N-nitrosodiethylamine] .
Response line: 4.6

Prompt line: Name the recorded ACF-SBX 50% (estimated time to achieve designated toxin removal) for O=[N+]([O-])c1ccc(O)cc1 [4-nitrophenol] .
Response line: 1.5

Prompt line: Name the recorded ACF-SBX 50% (estimated time to achieve designated toxin removal) for CC(C)(c1ccc(O)cc1)c1ccc(O)cc1 [bisphenol A] .
Response line: 4.0

Prompt line: Name the recorded ACF-SBX 50% (estimated time to achieve designated toxin removal) for C[C@]12CC[C@@H]3c4ccc(O)cc4CC[C@H]3[C@@H]1CC[C@@H]2O [17β-estradiol] .
Response line: 0.5

Prompt line: Name the recorded ACF-SBX 50% (estimated time to achieve designated toxin removal) for CCCCC(CC)COC(=O)c1ccccc1C(=O)OCC(CC)CCCC (centres unmarked) [DEHP, bis(2-ethylhexyl)phthalate] .
Response line: 3.8

Prompt line: Name the recorded ACF-SBX 50% (estimated time to achieve designated toxin removal) for CCOC(=O)c1ccccc1C(=O)OCC [diethyl phthalate] .
Response line: 3.5

Prompt line: Name the recorded ACF-SBX 50% (estimated time to achieve designated toxin removal) for Clc1ccccc1Cl [o-dichlorobenzene] .
Response line: 0.8

Prompt line: Name the recorded ACF-SBX 50% (estimated time to achieve designated toxin removal) for Oc1ccc(Cl)cc1Cl [2,4-dichlorophenol] .
Response line: 2.3

Prompt line: Name the recorded ACF-SBX 50% (estimated time to achieve designated toxin removal) for CCc1ccccc1 [ethylbenzene] .
Response line: 0.3

Prompt line: Name the recorded ACF-SBX 50% (estimated time to achieve designated toxin removal) for O=c1[nH]c(=O)c2[nH]c(=O)[nH]c2[nH]1 [uric acid] .
Response line: 3.0

Values were extracted from patent US10683216B2.
